- System: Radical scavenging activity
- experimentalProtocol: Antioxidant activity assessed as DPPH free radical scavenging activity at 100 ug/mL after 10 min UV-Vis spectrophotometric analysis relative to control
- Format: functional
Mark yes (1) only for Activity values smaller than 30%; exact matches and larger values are no (0).

{"compound": "CN(C)c1ccc(C(CC(=O)c2cc3ccccc3o2)Nc2ccc(C(=O)O)cc2)cc1 (stereo not given)", "measuredOn": "Radical scavenging activity", "answerLabel": "no (0)"}
{"compound": "O=C(O)c1ccc(NC(CC(=O)c2cc3ccccc3oc2=O)c2ccc(F)cc2)cc1 (stereo not given)", "measuredOn": "Radical scavenging activity", "answerLabel": "no (0)"}
{"compound": "O=C(O)c1ccc(NC(CC(=O)c2cc3ccccc3o2)c2ccc(Cl)cc2)cc1 (stereo not given)", "measuredOn": "Radical scavenging activity", "answerLabel": "no (0)"}
{"compound": "O=C(CC(Nc1ccccc1)c1ccccc1)c1cc2ccccc2oc1=O (stereo not given)", "measuredOn": "Radical scavenging activity", "answerLabel": "yes (1)"}
{"compound": "O=C(O)c1ccc(NC(CC(=O)c2cc3ccccc3oc2=O)c2ccc([N+](=O)[O-])cc2)cc1 (stereo not given)", "measuredOn": "Radical scavenging activity", "answerLabel": "yes (1)"}
{"compound": "COc1ccc(C(CC(=O)c2cc3ccccc3o2)Nc2ccccc2)cc1 (stereo not given)", "measuredOn": "Radical scavenging activity", "answerLabel": "yes (1)"}
{"compound": "O=C(O)c1ccc(NC(CC(=O)c2cc3ccccc3oc2=O)c2ccccc2)cc1 (stereo not given)", "measuredOn": "Radical scavenging activity", "answerLabel": "no (0)"}
{"compound": "O=C(O)c1ccc(NC(CC(=O)c2cc3ccccc3oc2=O)c2ccc(Cl)cc2)cc1 (stereo not given)", "measuredOn": "Radical scavenging activity", "answerLabel": "no (0)"}
{"compound": "Cc1cc(C(C)(C)C)c(O)c(C(C)(C)C)c1", "measuredOn": "Radical scavenging activity", "answerLabel": "no (0)"}

---

- System: Chrysosporium keratinophilum
- experimentalProtocol: Antifungal activity against Chrysosporium keratinophilum assessed as growth inhibition at 50 mg/mL after 72 hr by agar well diffusion method
- Assay type: functional
- assayContext: read-out: IZ

{"compound": "O=C(O)c1ccc(NC(CC(=O)c2cc3ccccc3oc2=O)c2ccc([N+](=O)[O-])cc2)cc1 (configuration not stated)", "zone of inhibition at 50000 µg/mL (mm)": 6}
{"compound": "CN(C)c1ccc(C(CC(=O)c2cc3ccccc3o2)Nc2ccc(C(=O)O)cc2)cc1 (configuration not stated)", "zone of inhibition at 50000 µg/mL (mm)": 12}
{"compound": "O=C(O)c1ccc(NC(CC(=O)c2cc3ccccc3o2)c2ccccc2)cc1 (configuration not stated)", "zone of inhibition at 50000 µg/mL (mm)": 2}
{"compound": "O=C(O)c1ccc(NC(CC(=O)c2cc3ccccc3oc2=O)c2ccc(Cl)cc2)cc1 (configuration not stated)", "zone of inhibition at 50000 µg/mL (mm)": 15}
{"compound": "O=C(CC(Nc1ccccc1)c1ccccc1)c1cc2ccccc2oc1=O (configuration not stated)", "zone of inhibition at 50000 µg/mL (mm)": 3}
{"compound": "O=C(CC(Nc1ccccc1)c1ccccc1)c1cc2ccccc2o1 (configuration not stated)", "zone of inhibition at 50000 µg/mL (mm)": 1}
{"compound": "O=C(O)c1ccc(NC(CC(=O)c2cc3ccccc3o2)c2ccc(F)cc2)cc1 (configuration not stated)", "zone of inhibition at 50000 µg/mL (mm)": 12}
{"compound": "O=C(O)c1ccc(NC(CC(=O)c2cc3ccccc3o2)c2ccc([N+](=O)[O-])cc2)cc1 (configuration not stated)", "zone of inhibition at 50000 µg/mL (mm)": 2}
{"compound": "O=C(O)c1ccc(NC(CC(=O)c2cc3ccccc3o2)c2ccc(Cl)cc2)cc1 (configuration not stated)", "zone of inhibition at 50000 µg/mL (mm)": 13}
{"compound": "O=C(O)c1ccc(NC(CC(=O)c2cc3ccccc3oc2=O)c2ccccc2)cc1 (configuration not stated)", "zone of inhibition at 50000 µg/mL (mm)": 13}
{"compound": "COc1ccc(C(CC(=O)c2cc3ccccc3o2)Nc2ccc(C(=O)O)cc2)cc1 (configuration not stated)", "zone of inhibition at 50000 µg/mL (mm)": 2}
{"compound": "O=C(O)c1ccc(NC(CC(=O)c2cc3ccccc3oc2=O)c2ccc(F)cc2)cc1 (configuration not stated)", "zone of inhibition at 50000 µg/mL (mm)": 12}

---

- Test system: Radical scavenging activity
- experimentalProtocol: Antioxidant activity assessed as DPPH free radical scavenging activity at 100 ug/mL after 10 min UV-Vis spectrophotometric analysis relative to control
- Assay type: functional
Define the label as satisfied when Activity is strictly less than 40% and as not satisfied in all remaining cases.

{"molecule": "Cc1ccc(C(CC(=O)c2cc3ccccc3oc2=O)Nc2ccc(C(=O)O)cc2)cc1 (stereo not given)", "answerLabel": "not satisfied"}
{"molecule": "O=C(CC(Nc1ccccc1)c1ccccc1)c1cc2ccccc2o1 (stereo not given)", "answerLabel": "satisfied"}
{"molecule": "O=C(O)c1ccc(NC(CC(=O)c2cc3ccccc3o2)c2ccccc2)cc1 (stereo not given)", "answerLabel": "not satisfied"}
{"molecule": "COc1ccc(C(CC(=O)c2cc3ccccc3o2)Nc2ccc(C(=O)O)cc2)cc1 (stereo not given)", "answerLabel": "satisfied"}
{"molecule": "O=C(O)c1ccc(NC(CC(=O)c2cc3ccccc3o2)c2ccc(F)cc2)cc1 (stereo not given)", "answerLabel": "satisfied"}

---

- Tested on: Escherichia coli
- experimentalProtocol: Antibacterial activity against Escherichia coli ATCC 25922 assessed as growth inhibition after 24 hr by serial broth dilution method
- assayContext: ATCC 25922, 24 h

{"molecule": "O=C(O)c1ccc(NC(CC(=O)c2cc3ccccc3oc2=O)c2ccc([N+](=O)[O-])cc2)cc1 (stereo not given)", "MIC": "500 µg/mL"}
{"molecule": "O=C(O)c1ccc(NC(CC(=O)c2cc3ccccc3oc2=O)c2ccccc2)cc1 (stereo not given)", "MIC": "50 µg/mL"}
{"molecule": "CN(C)c1ccc(C(CC(=O)c2cc3ccccc3oc2=O)Nc2ccc(C(=O)O)cc2)cc1 (stereo not given)", "MIC": "500 µg/mL"}
{"molecule": "O=C(O)c1ccc(NC(CC(=O)c2cc3ccccc3oc2=O)c2ccc(F)cc2)cc1 (stereo not given)", "MIC": "100 µg/mL"}
{"molecule": "Cc1ccc(C(CC(=O)c2cc3ccccc3oc2=O)Nc2ccc(C(=O)O)cc2)cc1 (stereo not given)", "MIC": "500 µg/mL"}

---

- Test system: Radical scavenging activity
- experimentalProtocol: Antioxidant activity assessed as DPPH free radical scavenging activity at 100 ug/mL after 10 min UV-Vis spectrophotometric analysis relative to control
- Format: functional

{"compound": "CN(C)c1ccc(C(CC(=O)c2cc3ccccc3oc2=O)Nc2ccc(C(=O)O)cc2)cc1 (stereo not drawn)", "Activity, %": 12.3}
{"compound": "COc1ccc(C(CC(=O)c2cc3ccccc3oc2=O)Nc2ccc(C(=O)O)cc2)cc1 (stereo not drawn)", "Activity, %": 18.1}
{"compound": "Cc1ccc(C(CC(=O)c2cc3ccccc3o2)Nc2ccc(C(=O)O)cc2)cc1 (stereo not drawn)", "Activity, %": 54.1}

---

MIC: recorded values
- System: Staphylococcus aureus
- experimentalProtocol: Antibacterial activity against Staphylococcus aureus ATCC 25923 assessed as growth inhibition after 24 hr by serial broth dilution method
- assayContext: ATCC 25923, 24 h

{"molecule": "O=C(O)c1ccc(NC(CC(=O)c2cc3ccccc3oc2=O)c2ccc([N+](=O)[O-])cc2)cc1 (centres undefined)", "MIC (µg/mL)": 500}
{"molecule": "O=C(O)c1ccc(NC(CC(=O)c2cc3ccccc3o2)c2ccccc2)cc1 (centres undefined)", "MIC (µg/mL)": 450}
{"molecule": "O=C(CC(Nc1ccccc1)c1ccccc1)c1cc2ccccc2oc1=O (centres undefined)", "MIC (µg/mL)": 500}
{"molecule": "Cc1ccc(C(CC(=O)c2cc3ccccc3oc2=O)Nc2ccc(C(=O)O)cc2)cc1 (centres undefined)", "MIC (µg/mL)": 500}
{"molecule": "O=C(O)c1ccc(NC(CC(=O)c2cc3ccccc3oc2=O)c2ccccc2)cc1 (centres undefined)", "MIC (µg/mL)": 100}
{"molecule": "COc1ccc(C(CC(=O)c2cc3ccccc3o2)Nc2ccc(C(=O)O)cc2)cc1 (centres undefined)", "MIC (µg/mL)": 500}
{"molecule": "CN(C)c1ccc(C(CC(=O)c2cc3ccccc3o2)Nc2ccc(C(=O)O)cc2)cc1 (centres undefined)", "MIC (µg/mL)": 60}
{"molecule": "CN(C)c1ccc(C(CC(=O)c2cc3ccccc3oc2=O)Nc2ccc(C(=O)O)cc2)cc1 (centres undefined)", "MIC (µg/mL)": 550}
{"molecule": "O=C(CC(Nc1ccccc1)c1ccccc1)c1cc2ccccc2o1 (centres undefined)", "MIC (µg/mL)": 500}
{"molecule": "O=C(O)c1ccc(NC(CC(=O)c2cc3ccccc3oc2=O)c2ccc(F)cc2)cc1 (centres undefined)", "MIC (µg/mL)": 120}
{"molecule": "O=C(O)c1ccc(NC(CC(=O)c2cc3ccccc3o2)c2ccc(Cl)cc2)cc1 (centres undefined)", "MIC (µg/mL)": 130}
{"molecule": "O=C(O)c1ccc(NC(CC(=O)c2cc3ccccc3o2)c2ccc(F)cc2)cc1 (centres undefined)", "MIC (µg/mL)": 140}
{"molecule": "O=C(O)c1ccc(NC(CC(=O)c2cc3ccccc3oc2=O)c2ccc(Cl)cc2)cc1 (centres undefined)", "MIC (µg/mL)": 50}
{"molecule": "O=C(O)c1ccc(NC(CC(=O)c2cc3ccccc3o2)c2ccc([N+](=O)[O-])cc2)cc1 (centres undefined)", "MIC (µg/mL)": 400}
